Values were extracted from DBAASP.

test system: Staphylococcus aureus ATCC 25923
Observation type: MIC (µM)
One number for each entry, in µM.

Report MIC for every entry below.
1. CC[C@H](C)[C@H](NC(=O)[C@@H](N)CCCCN)C(=O)N[C@@H](C)C(=O)N[C@@H](CCCCN)C(=O)N[C@H](C(=O)N[C@@H](C)C(=O)N[C@@H](CC(C)C)C(=O)N[C@@H](CCCCN)C(=O)N[C@@H](C)C(=O)N[C@@H](CC(C)C)C(N)=O)C(C)C [KIAKVALKAL]
2. CC(C)C[C@H](NC(=O)[C@H](CC(C)C)NC(=O)[C@H](CCCCN)NC(=O)[C@H](CO)NC(=O)[C@H](CC(C)C)NC(=O)[C@H](C)NC(=O)[C@H](CCCCN)NC(=O)[C@H](Cc1c[nH]c2ccccc12)NC(=O)[C@H](CC(C)C)NC(=O)[C@H](C)NC(=O)CNC(=O)[C@H](CC(C)C)NC(=O)[C@@H](N)Cc1ccccc1)C(=O)O [FLGALWKALSKLL]
3. CC[C@H](C)[C@H](NC(=O)[C@H](Cc1ccccc1)NC(=O)[C@@H](NC(=O)[C@H](Cc1ccc(O)cc1)NC(=O)[C@H](CCCN=C(N)N)NC(=O)[C@H](CCCCN)NC(=O)[C@H](CCCN=C(N)N)NC(=O)[C@H](CCCCN)NC(=O)[C@H](Cc1c[nH]c2ccccc12)NC(=O)[C@H](CC(C)C)NC(=O)[C@@H](NC(=O)[C@@H](N)Cc1ccc(O)cc1)C(C)C)[C@@H](C)CC)C(=O)O [YVLWKRKRYIFI]

Response:
8.25
4
1.78
